tested on: bedstraw; test: Test B pre/postemergence bedstraw; assay type: in vivo, Galium aparine; details: Rate 125 g/ha, Postemergence; scale of 0 to 10 where 0 is no effect and 10 is complete control
Property: Bedstraw plant response rating; scope: individual compounds
Parameter: Bedstraw plant response rating

INSERT INTO results (compound, numeric_result) VALUES
  ('Cc1ccccc1-n1c(=O)on(C(=O)N(c2ccncc2)C(C)C)c1=O [Compound 301]', 0),
  ('CC(C)N(C(=O)n1oc(=O)n(C2CCCC2)c1=O)c1ccc(Cl)cc1 [Compound 282]', 5),
  ('Cc1ccccc1-n1c(=O)on(C(=O)N(c2ccc3ccccc3c2)C(C)C)c1=O [Compound 306]', 0),
  ('Cc1ccccc1-n1c(=O)on(C(=O)N(c2cccc(F)c2)C(C)C)c1=O [Compound 269]', 4);

====

Property: Plant response rating, Crabgrass; scope: individual molecules
tested on: crabgrass; assay: Test B pre/postemergence crabgrass; type: in vivo, Digitaria sanguinalis; details: Postemergence, Rate 62 g/ha; scale 0 to 10, 0 is no effect, 10 is complete control
Parameter: Plant response rating, Crabgrass

INSERT INTO assay_data (molecule, parameter, numeric_result) VALUES
  ('CCOC(=O)CC(C(=O)OCC)n1c(=O)on(C(=O)N(c2ccccc2)C(C)C)c1=O (centres unmarked)', 'Plant response rating, Crabgrass', 0),
  ('C=C(Cn1c(=O)on(C(=O)N(c2ccccc2)C(C)C)c1=O)C(C)(C)C', 'Plant response rating, Crabgrass', 0),
  ('CC[C@@H](C)n1c(=O)on(C(=O)N(c2ccc(F)cc2F)C(C)C)c1=O', 'Plant response rating, Crabgrass', 6),
  ('CC(=O)NCn1c(=O)on(C(=O)N(c2ccc(F)cc2F)C(C)C)c1=O', 'Plant response rating, Crabgrass', 2),
  ('CC(=O)N(C)CCn1c(=O)on(C(=O)N(c2ccc(F)cc2)C(C)C)c1=O', 'Plant response rating, Crabgrass', 1),
  ('CCCCCn1c(=O)on(C(=O)N(c2ccc(F)cc2F)C(C)C)c1=O', 'Plant response rating, Crabgrass', 3),
  ('CC(C)N(C(=O)n1oc(=O)n(CC(F)F)c1=O)c1ccccc1', 'Plant response rating, Crabgrass', 7),
  ('CC(C)N(C(=O)n1oc(=O)n(CCCC#N)c1=O)c1ccccc1', 'Plant response rating, Crabgrass', 6);

====

system: morningglory; experiment: Test B pre/postemergence morningglory; type: in vivo, Ipomoea hederacea; conditions: Preemergence, Rate 250 g/ha; scale of 0 to 10 where 0 is no effect and 10 is complete control
Property: Morningglory plant response rating; scope: individual molecules
Parameter: Morningglory plant response rating

INSERT INTO assay_data (molecule, numeric_result) VALUES
  ('Cc1ccccc1-n1c(=O)on(C(=O)N(c2ccncc2)C(C)C)c1=O [Compound 301]', 0),
  ('Cc1ccccc1-n1c(=O)on(C(=O)N(c2ccc3ccccc3c2)C(C)C)c1=O [Compound 306]', 0),
  ('CC(C)N(C(=O)n1oc(=O)n(CCC2CCCCC2)c1=O)c1ccc(F)cc1 [Compound 257]', 2),
  ('CCC(=O)Cn1c(=O)on(C(=O)N(c2ccc(F)cc2)C(C)C)c1=O [Compound 252]', 0),
  ('CC(C)N(C(=O)n1oc(=O)n(C2CCCC2)c1=O)c1ccc(Cl)cc1 [Compound 282]', 0),
  ('CCC(CC)n1c(=O)on(C(=O)N(c2ccc(F)cc2F)C(C)C)c1=O [Compound 353]', 1),
  ('CC(C)N(C(=O)n1oc(=O)n(C2CCCCCC2)c1=O)c1ccccc1 [Compound 341]', 0),
  ('CCOC(=O)C(C)N(C(=O)n1oc(=O)n(-c2c(C)cccc2C)c1=O)c1ccc(F)cc1 (stereo not drawn) [Compound 244]', 0),
  ('CC(C)N(C(=O)n1oc(=O)n(C2CCC2)c1=O)c1ccc(F)cc1 [Compound 350]', 0);

====

Tested on: blackgrass
Assay: Test B pre/postemergence blackgrass
Assay type: in vivo, Alopecurus myosuroides
Conditions: Rate 62 g/ha, Postemergence; scale of 0 to 10 where 0 is no effect and 10 is complete control
Description: […] At the same time, these crop and weed species were also treated with postemergence applications of test chemicals formulated in the same manner. […] Treated plants and controls were maintained in a greenhouse for twelve to sixteen days, after which all species were compared to controls and visually evaluated. […]
Property: Blackgrass plant response rating; scope: individual compounds
Parameter: Blackgrass plant response rating

INSERT INTO results (compound, measurement_target, result) VALUES
  ('Cc1ccccc1-n1c(=O)on(C(=O)N(c2ccc(-c3ccccc3)cc2)C(C)C)c1=O', 'blackgrass', 0),
  ('CC(C)N(C(=O)n1oc(=O)n(C2CCCCCC2)c1=O)c1ccccc1', 'blackgrass', 0),
  ('COCC(C)n1c(=O)on(C(=O)N(c2ccc(F)cc2F)C(C)C)c1=O (centres unmarked)', 'blackgrass', 8),
  ('CCOC(=O)Cn1c(=O)on(C(=O)N(c2ccc(F)cc2)C(C)C)c1=O', 'blackgrass', 0),
  ('Cc1ccccc1Cn1c(=O)on(C(=O)N(c2ccc(Cl)cc2)C(C)C)c1=O', 'blackgrass', 0),
  ('CCc1noc(C)c1-n1c(=O)on(C(=O)N(c2ccc(F)cc2)C(C)C)c1=O', 'blackgrass', 0),
  ('Cc1ccccc1-n1c(=O)on(C(=O)N(c2cccc(F)c2)C(C)C)c1=O', 'blackgrass', 0),
  ('CCC(=O)Cn1c(=O)on(C(=O)N(c2ccc(F)cc2)C(C)C)c1=O', 'blackgrass', 0);

====

Property: Soybean plant response rating; scope: individual compounds
test system: soybean; assay: Test B pre/postemergence soybean; assay type: in vivo, Glycine max; settings: Preemergence, Rate 500 g/ha; scale 0 to 10, 0 is no effect, 10 is complete control
Parameter: Soybean plant response rating

INSERT INTO results (compound_smiles, parameter, numeric_result) VALUES
  ('CC(C)N(C(=O)n1oc(=O)n(C)c1=O)c1ccccc1', 'Soybean plant response rating', 8),
  ('CC(C)N(C(=O)n1oc(=O)n(CC2=NOCCC2)c1=O)c1ccccc1', 'Soybean plant response rating', 0),
  ('CC(C)N(C(=O)n1oc(=O)n(CCl)c1=O)c1ccc(F)cc1F', 'Soybean plant response rating', 0),
  ('CSCCn1c(=O)on(C(=O)N(c2ccccc2)C(C)C)c1=O', 'Soybean plant response rating', 0);

====

Property: Velvetleaf plant response rating; scope: individual compounds
system: velvetleaf; experiment: Test B pre/postemergence velvetleaf; type: in vivo, Abutilon theophrasti; settings: Preemergence, Rate 62 g/ha; scale of 0 to 10 where 0 is no effect and 10 is complete control
Parameter: Velvetleaf plant response rating

INSERT INTO results (compound, numeric_result) VALUES
  ('CC(C)N(C(=O)n1oc(=O)n(CC2CCCC2)c1=O)c1ccc(F)cc1', 0),
  ('Cc1ccccc1-n1c(=O)on(C(=O)N(c2ccc(-c3ccccc3)cc2)C(C)C)c1=O', 0),
  ('CC1CCCCC1n1c(=O)on(C(=O)N(c2ccc(F)cc2)C(C)C)c1=O (stereo not drawn)', 0),
  ('Cc1ccccc1-n1c(=O)on(C(=O)N(c2cccc(F)c2)C(C)C)c1=O', 0),
  ('CC(C)N(C(=O)n1oc(=O)n(CC(F)F)c1=O)c1ccc(F)cc1F', 4),
  ('CC(C)N(C(=O)n1oc(=O)n(C(C)C2=NOCC2)c1=O)c1ccc(F)cc1F (racemic)', 0),
  ('Cc1ccccc1-n1c(=O)on(C(=O)N(c2ccc3ccccc3c2)C(C)C)c1=O', 0),
  ('CCC(=O)Cn1c(=O)on(C(=O)N(c2ccc(F)cc2)C(C)C)c1=O', 0),
  ('COCCOCn1c(=O)on(C(=O)N(c2ccc(F)cc2)C(C)C)c1=O', 2);

====

system: bedstraw; assay: Test B pre/postemergence bedstraw; format: in vivo, Galium aparine; conditions: Rate 500 g/ha, Postemergence; scale 0 to 10, 0 no effect, 10 complete control
Property: Bedstraw plant response rating; scope: individual molecules
Parameter: Bedstraw plant response rating

INSERT INTO measurements (molecule, parameter, result) VALUES
  ('COCCOCn1c(=O)on(C(=O)N(c2ccc(F)cc2)C(C)C)c1=O [Compound 258]', 'Bedstraw plant response rating', 8),
  ('CCC(C)N(C(=O)n1oc(=O)n(-c2ccccc2C)c1=O)c1ccc(F)cc1 (stereo not shown)', 'Bedstraw plant response rating', 3),
  ('Cc1cc(C)c(-n2c(=O)on(C(=O)N(c3ccc(F)cc3)C(C)C)c2=O)c(Br)c1', 'Bedstraw plant response rating', 4),
  ('COCCOCn1c(=O)on(C(=O)N(c2ccc(F)cc2)C(C)C)c1=O [Compound 220]', 'Bedstraw plant response rating', 9),
  ('Cc1nn(C)c(Cl)c1-n1c(=O)on(C(=O)N(c2ccc(F)cc2)C(C)C)c1=O', 'Bedstraw plant response rating', 2),
  ('CC(C)N(C(=O)n1oc(=O)n(C2CC2)c1=O)c1ccccc1', 'Bedstraw plant response rating', 5),
  ('CC(C)N(C(=O)n1oc(=O)n(CCCl)c1=O)c1ccc(F)cc1', 'Bedstraw plant response rating', 6);

Reference for the values: patent US6737383B1
